The origin of these recorded values is ChEMBL document CHEMBL3992510.

- Protocol: Drug level in mouse brain at 50 mg/kg, po administered as single dose via gavage measured at 1 hr post dose by liquid chromatography/tandem mass spectrometric analysis
- Type: ADME, organism-based
- Test Conditions: read-out: Drug uptake
Metric Name: concentration at 1 h (µM)

• O=C(Nc1ccc2sc(-c3ccc(F)c(F)c3)nc2c1)N1CC[C@H](F)C1 = 38.2

----------
- Protocol: AUC (0 to infinity) in mouse at 50 mg/kg, po administered as single dose via gavage as 0.5% methylcellulose cP400/0.5% Tween 80 formulation by liquid chromatography/tandem mass spectrometric analysis
- Assay type: ADME, organism-based
- Design: dose 50 mg/kg, route oral, time infinity
- Test Conditions: in vivo
Metric Name: AUC(0-inf)

• O=C(Nc1ccc2sc(-c3ccc(F)c(F)c3)nc2c1)N1CC[C@H](F)C1 = 106 µM·h

----------
Readings of EC90 for the listed compounds
- Protocol: Cytotoxicity against human CRL8155 cells assessed as growth inhibition after 48 hrs by Alamar blue assay
- Format: cell-based
- Test Conditions: human, crl8155, 48 h
Metric Name: EC90

• CC1CCCCN1C(=O)NCCc1nc(-c2cccc(F)c2)cs1 (stereo not drawn) = > 50 µM
• O=C(Nc1ccc2sc(-c3cccc(F)c3)nc2c1)N1CCCCC1 = > 50 µM
• O=C1CCN(C(=O)NCCc2nc(-c3cccc(F)c3)cs2)CC1 = > 50 µM
• C[C@@H]1CCC[C@H](C)N1C(=O)NCCc1nc(-c2cccc(F)c2)cs1 = > 50 µM
• O=C(NCCc1nc(-c2cccc(F)c2)cs1)N1CCCC(F)(F)C1 = > 50 µM
• O=C(Nc1ccc2sc(-c3ccccc3)nc2c1)c1cccs1 = > 50 µM
• O=C(Nc1ccc2sc(-c3ccc(F)c(F)c3)nc2c1)N1CCC(F)CC1 = > 50 µM
• O=C(Nc1ccc2sc(-c3ccccc3F)nc2c1)N1CCCCC1 = > 50 µM
• O=C(Nc1ccc2sc(-c3ccc(F)c(F)c3)nc2c1)N1CC[C@@H](F)C1 = > 50 µM
• O=C(Nc1ccc2sc(-c3ccccc3)nc2c1)N1CCCC1 = > 50 µM
• O=C(NCCc1nc(-c2cccc(F)c2)cs1)N1CCC(F)CC1 = > 50 µM
• O=C(Nc1ccc2sc(-c3ccccc3F)nc2c1)N1CCCC1 = > 50 µM
• O=C(Nc1ccc2sc(-c3ccc(F)c(F)c3)nc2c1)N1CCCCC1 = > 50 µM
• O=C(Nc1ccc2sc(-c3ccc(F)cc3)nc2c1)N1CCCCC1 = > 50 µM
• O=C(Nc1ccc2sc(-c3cccc(F)c3F)nc2c1)N1CCCC1 = > 50 µM
• O=C(Nc1ccc2sc(-c3ccc(F)c(F)c3)nc2c1)N1CCCC1 = > 50 µM
• O=C(Nc1ccc2sc(-c3cccc(F)c3)nc2c1)N1CCCC1 = > 50 µM
• O=C(NCCc1nc(-c2cccc(F)c2)cs1)N1CCC(F)(F)CC1 = > 50 µM
• O=C(Nc1ccc2sc(-c3ccc(F)c(F)c3)nc2c1)N1C[C@@H](F)[C@H](F)C1 = > 50 µM
• O=C(N/C=C/c1nc(-c2cccc(F)c2)cs1)N1CCCCC1 = > 50 µM
• O=C(NCCc1nc(-c2cccc(F)c2)cs1)N1CCCC(F)C1 (stereo not drawn) = > 50 µM
• CCN(CC)CCCC(C)Nc1c2ccc(Cl)cc2nc2ccc(OC)cc12 (stereo not drawn) = 9.94 µM
• Cl.S=C(NCCc1nc(-c2ccccc2)cs1)N1CCCCC1 = > 50 µM

----------
- Test system: Trypanosoma brucei brucei
- Protocol: Antitrypanosomal activity against Trypanosoma brucei brucei BF427 assessed as growth inhibition measured after 48 hrs by Alamar blue assay
- Format: functional
- Test Conditions: BF427, 48 h
hey, just use 1.0 if measured EC90 is less than 0.6 µM, otherwise 0.0

* O=C(Nc1nc2ccc(-c3ccc(F)c(F)c3)cc2s1)N1CCC(F)C1 (stereo not drawn) | 0.0
* O=C(NCCc1nc(-c2cccc(F)c2)cs1)N1CCC(F)(F)CC1 | 1.0
* O=C(N/C=C/c1nc(-c2cccc(F)c2)cs1)N1CCCCC1 | 1.0
* O=C(Nc1ccc2oc(-c3ccccc3)nc2c1)c1ccccc1 | 0.0
* O=C(Nc1ccc2oc(-c3ccccc3)nc2c1)N1CCCC1 | 0.0
* CC(C)(Cc1nc(-c2cccc(F)c2)cs1)NC(=O)c1ccccc1 | 0.0
* O=C(Nc1ccc2sc(-c3ccc(F)c(F)c3)nc2c1)N1CCC(O)C1 (stereo not drawn) | 0.0
* O=C(Nc1ccc2sc(-c3ccccc3)nc2c1)c1ccccc1 | 0.0
* O=C1CCN(C(=O)NCCc2nc(-c3cccc(F)c3)cs2)CC1 | 0.0
* O=C(Nc1ccc2sc(-c3ccc(F)cc3)nc2c1)c1ccccc1 | 0.0
* O=C(Nc1ccc2sc(-c3ccccc3F)nc2c1)N1CCCC1 | 0.0
* O=C(Nc1nc2cc(-c3ccc(F)c(F)c3)ccc2s1)N1CCC(F)C1 (stereo not drawn) | 0.0
* N=C(N)c1ccc(OCCCCCOc2ccc(C(=N)N)cc2)cc1 | 1.0
* O=C(Nc1ccc2sc(-c3ccc(F)c(F)c3)nc2c1)N1CCC(F)C1 (stereo not drawn) | 1.0
* O=C(NCCc1nc(-c2ccccc2)cs1)N1CCCCCC1 | 1.0
* O=C(Nc1ccc2sc(-c3ccc(F)c(F)c3)nc2c1)N1CCCCC1 | 1.0
* CC(C)(Cc1nc(-c2ccccc2)cs1)NC(=O)c1ccccc1 | 0.0
* CC(C)(Cc1csc(-c2ccccc2)n1)NC(=O)N1CCCC1 | 0.0
* Cl.S=C(NCCc1nc(-c2ccccc2)cs1)N1CCCCC1 | 1.0
* O=C(Nc1ccc2sc(-c3ccccc3)nc2c1)N1CC=CCC1 | 0.0
* CC(C)(Cc1csc(-c2ccccc2)n1)NC(=O)N1CCCCCC1 | 0.0
* O=C(Nc1ccc2sc(-c3ccc(F)c(F)c3)nc2c1)N1CC[C@H](F)C1 | 1.0

----------
- Protocol: Drug level in mouse plasma at 5 mg/kg, ip administered as single dose measured at 1 hr post dose by liquid chromatography/tandem mass spectrometric analysis
- Type: ADME, organism-based
hey, just use TRUE if measured concentration at 1 h is less than 2000 nM, otherwise FALSE

• O=C(Nc1ccc2sc(-c3ccc(F)c(F)c3)nc2c1)N1C[C@@H](F)[C@H](F)C1 = FALSE
• O=C(Nc1ccc2sc(-c3ccc(F)c(F)c3)nc2c1)N1CCC(C(F)(F)F)C1 (stereo not given) = FALSE
• O=C(Nc1ccc2sc(-c3ccc(F)c(F)c3)nc2c1)N1CC[C@H](F)C1 = FALSE
• O=C(Nc1ccc2sc(-c3ccc(F)c(F)c3)nc2c1)N1CC[C@@H](F)C1 = TRUE
• O=C(Nc1ccc2oc(-c3ccccc3)nc2c1)N1CCCC1 = TRUE

----------
- Protocol: Selectivity index, ratio of EC50 for human CRL8155 cells to EC50 for Trypanosoma brucei brucei BF427
- Type: toxicity
- Test Conditions: read-out: Ratio EC50
Metric Name: selectivity ratio

• O=C(NCCc1nc(-c2cccc(F)c2)cs1)N1CCC(F)(F)CC1 = > 305
• O=C(Nc1ccc2sc(-c3ccc(F)c(F)c3)nc2c1)N1CCC(F)C1 (stereo not given) = > 963
• C[C@@H]1CCC[C@H](C)N1C(=O)NCCc1nc(-c2cccc(F)c2)cs1 = > 125
• O=C(Nc1ccc2sc(-c3ccccc3F)nc2c1)N1CCCCC1 = > 53
• O=C(Nc1ccc2sc(-c3cccc(F)c3F)nc2c1)N1CCCC1 = > 273

----------
- Protocol: Selectivity index, ratio of EC50 for human HepG2 cells to EC50 for Trypanosoma brucei brucei BF427
- Format: toxicity
- Test Conditions: read-out: Ratio EC50
Metric Name: selectivity ratio

- O=C(Nc1ccc2sc(-c3ccccc3F)nc2c1)N1CCCC1: > 51
- O=C(Nc1ccc2sc(-c3cccc(F)c3)nc2c1)N1CCCCC1: > 287
- O=C(NCCc1nc(-c2cccc(F)c2)cs1)N1CCCC(F)C1 (stereo not drawn): > 1750
- O=C(Nc1ccc2sc(-c3ccc(F)c(F)c3)nc2c1)N1CCC(F)CC1: > 147
- O=C(NCCc1nc(-c2cccc(F)c2)cs1)N1CCC(F)(F)CC1: > 305
- C[C@@H]1CCC[C@H](C)N1C(=O)NCCc1nc(-c2cccc(F)c2)cs1: > 125
- O=C(Nc1ccc2sc(-c3ccccc3)nc2c1)N1CCCC1: > 154
- O=C(Nc1ccc2sc(-c3ccc(F)c(F)c3)nc2c1)N1C[C@@H](F)[C@H](F)C1: > 439
- O=C(Nc1ccc2sc(-c3ccc(F)c(F)c3)nc2c1)N1CCCC1: > 545
- Cl.S=C(NCCc1nc(-c2ccccc2)cs1)N1CCCCC1: > 2060
- O=C(Nc1ccc2sc(-c3ccc(F)c(F)c3)nc2c1)N1CCC(F)(F)C1: > 54
- O=C(N/C=C/c1nc(-c2cccc(F)c2)cs1)N1CCCCC1: > 529
- O=C(Nc1ccc2sc(-c3cccc(F)c3F)nc2c1)N1CCCC1: > 273
- O=C(Nc1ccc2sc(-c3ccc(F)c(F)c3)nc2c1)N1CC[C@@H](F)C1: > 153
- CC1CCCCN1C(=O)NCCc1nc(-c2cccc(F)c2)cs1 (stereo not drawn): > 1350
- O=C(Nc1ccc2sc(-c3ccc(F)cc3)nc2c1)N1CCCC1: > 133
- O=C(Nc1ccc2sc(-c3ccccc3F)nc2c1)N1CCCCC1: > 53
- N=C(N)c1ccc(OCCCCCOc2ccc(C(=N)N)cc2)cc1: > 93000
- O=C(Nc1ccc2sc(-c3ccc(F)c(F)c3)nc2c1)N1CCC(F)C1 (stereo not drawn): > 963
- O=C(Nc1ccc2sc(-c3ccccc3)nc2c1)c1cccs1: > 57
- O=C(Nc1ccc2sc(-c3ccc(F)c(F)c3)nc2c1)N1CC[C@H](F)C1: > 1440
- O=C(NCCc1nc(-c2cccc(F)c2)cs1)N1CCC(F)CC1: > 1370
- O=C1CCN(C(=O)NCCc2nc(-c3cccc(F)c3)cs2)CC1: > 75
- O=C(NCCc1nc(-c2cccc(F)c2)cs1)N1CCCC(F)(F)C1: > 463
- O=C(Nc1ccc2sc(-c3ccc(F)c(F)c3)nc2c1)N1CCCCC1: > 224
- O=C(Nc1ccc2sc(-c3ccccc3)nc2c1)N1CCCCC1: > 137
- O=C(Nc1ccc2sc(-c3cccc(F)c3)nc2c1)N1CCCC1: > 316
- O=C(Nc1ccc2sc(-c3ccc(F)cc3)nc2c1)N1CCCCC1: > 117
